Reference for the values: the CheMixHub drug solubility set

# run-description: xn = mol fraction of the nth substance listed, in the solute-free solvent
# condition-description: 318.15 K; x2 = 0.5454
// reported solubility (g/100 g solution) per item
Write no unit; give the number alone.

Worked examples follow.
c1ccc2[nH]c(-c3cscn3)nc2c1 + CC(C)O + O | 0.459
Nc1cccc(S(=O)(=O)c2cccc(N)c2)c1 + CC(C)O + O | 2.14
c1ccc2[nH]c(-c3cscn3)nc2c1 + CCCO + O | 0.879

Identify measured solubility (g/100 g solution) associated with Nc1nccnc1Cl + CC(C)O + O 1.83

Supply recorded solubility (g/100 g solution) for Cc1[nH]c(=O)c(C#N)cc1-c1ccncc1 + CC(C)O + O here. 0.0256

Report solubility (g/100 g solution), nothing else, for this molecule: CN1CCN(C2=Nc3cc(Cl)ccc3Nc3ccccc32)CC1 + CC(C)O + O 2.58
